Test system: M14
Assay: DTP Human Tumor Cell Line Screen, sulforhodamine B assay
Format: cell-based
Details: Homo sapiens, Melanoma, 48 h
Experimental: The growth inhibitory activity of propargylic sulfone 3.2 against a wide range of human cancer cell lines was determined calorimetrically with sulforhodamine B assay conducted by the National Cancer Institute of the National Institutes of Health. The in vitro cytotoxicity of compounds 2.47, 2.48 and 3.2 were investigated using the DTP Human Tumor Cell Line Screen. […] Usually, test compounds were evaluated at five 10-fold dilutions. […]
reportedProperty: IC50

Task: Which IC50 value belongs to O=C(OCC1COCCOCCOCCOCCO1)c1ccc(CS(=O)(=O)CC#CCO)cc1 (stereo not shown) ?
Output: > 100 µM

###

Tested on: KM12
Test: DTP Human Tumor Cell Line Screen, sulforhodamine B assay
Format: cell-based
Details: Colon Cancer, 48 h
Experimental: The growth inhibitory activity of propargylic sulfone 3.2 against a wide range of human cancer cell lines was determined calorimetrically with sulforhodamine B assay conducted by the National Cancer Institute of the National Institutes of Health. The in vitro cytotoxicity of compounds 2.47, 2.48 and 3.2 were investigated using the DTP Human Tumor Cell Line Screen. […] Usually, test compounds were evaluated at five 10-fold dilutions. […]
reportedProperty: IC50 (µM)
Your answer should be a plain number; it is taken to be in µM.

O=S1(=O)CC#CCOCCOCCOCCOCCOCCOCC#CC1 [Compound 2.47] ... 16.2

Task: // lookup IC50 | system=KM12 | key= O=S1(=O)CC#CCOCCOCCOCCOCCOCCOCCOCC#CC1 [Compound 2.48]
Output: 20.7

###

Tested on: B16 murine melanoma cells
Assay: Growth inhibition of B16 murine melanoma cells, MTT assay
Type: cell-based
Settings: Mus musculus, B16, read-out: IC50, growth inhibition
reportedProperty: pIC50
On this scale, pIC50 is minus log10 of a concentration expressed in M (mol/L).

Task: Report pIC50 for C1#CCOCCOCCOCCOCCOCCOCC#C/C=C\1 [Compound 4.7] please.
Output: 4.17

###

Tested on: SK-MEL-2
Experiment: DTP Human Tumor Cell Line Screen, sulforhodamine B assay
Type: cell-based
Conditions: Homo sapiens, Melanoma, 48 h
reportedProperty: IC50 (µM)
Hi! Could you send only the number? It should be in µM, unit omitted.

Task: Given O=C(OCC1COCCOCCOCCOCCO1)c1ccc(CS(=O)(=O)CC#CCO)cc1 (stereo not shown) , state its recorded IC50.
Output: 98.7

###

System: SNB-19
Assay: DTP Human Tumor Cell Line Screen, sulforhodamine B assay
Format: cell-based
Details: Homo sapiens, CNS Cancer, 48 h
pIC50: −log10 of the molar value.
reportedProperty: pIC50

Task: // pIC50 lookup, key: O=C(OCC1COCCOCCOCCOCCO1)c1ccc(CS(=O)(=O)CC#CCO)cc1 (stereo not shown)
Output: < 4.00

###

System: MDA-MB-435
Test: DTP Human Tumor Cell Line Screen, sulforhodamine B assay
Format: cell-based
Details: Breast Cancer, 48 h
reportedProperty: IC50

O=S1(=O)CC#CCOCCOCCOCCOCCOCCOCC#CC1 [Compound 2.47] ... 13.3 µM

Next item in the queue.
Task: Please report the recorded IC50 for O=S1(=O)CC#CCOCCOCCOCCOCCOCCOCCOCC#CC1 [Compound 2.48] .
Output: 20.4 µM

###

Tested on: SF-295
Assay: DTP Human Tumor Cell Line Screen, sulforhodamine B assay
Assay type: cell-based
Conditions: CNS Cancer, 48 h
reportedProperty: pIC50
Kindly note that pIC50 refers to -log10 of the concentration in mol/L and answer with the value alone.

O=S1(=O)CC#CCOCCOCCOCCOCCOCCOCC#CC1 [Compound 2.47] ... 4.49

Task: Given O=S1(=O)CC#CCOCCOCCOCCOCCOCCOCCOCC#CC1 [Compound 2.48] , state its recorded pIC50.
Output: 4.09
